- protocol.text: Cell Viability - SK-N-SH (AID 435);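 also: compound exposure lasted 40 h at 37 °C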
- assay.conditions: SK-N-SH neuroblastoma cell viability qHTS
Records with an inconclusive call do not appear. Active and inactive are the calls of the source. Calls follow the shape of the full dose curve.
Respond using exactly one of the listed classes: 1.0 = active, 0.0 = inactive

Enquiry: Which result was noted for this molecule in the test: `CCCCOCCOCCOCc1cc2c(cc1CCC)OCO2`
Return: 0.0

Enquiry: Please indicate how the test categorized `COc1ccc(CN(CCN(C)C)c2ccccn2)cc1` .
Return: 0.0

Enquiry: Tell me the assay call for `NC(=O)N1c2ccccc2C=Cc2ccccc21` please.
Return: 0.0

Enquiry: Outcome? `COc1cc(Cc2cnc(N)nc2N)cc(OC)c1OC`
Return: 0.0

---

- protocol.text: High Content Imaging Cell-Based qHTS for Inhibitors of the mTORC1 Signaling Pathway in MEF Cells (AID 2667)
- assay.conditions: series mostly up to 38.3 µM
- Excerpt: NIH Molecular Libraries Probe Production Centers Network [MLPCN] NIH Chemical Genomics Center [NCGC] Assay Submitter (PI): Blenis, John; Hoffman, Greg; Harvard University […] For quantitative high throughput analysis of mTORC1 signaling, we developed a cell-based assay for immuno-fluorescence based detection of rpS6 phosphorylation on the Acumen Explorer that will be used a platform for the primary small molecule screen. […]
Inconclusive results are not listed. Active and inactive are the calls of the source. Calls come from the whole dose curve; as a rule, active = well fitted inhibition curve with a large enough effect; inconclusive = small, poorly fitted or top-dose-only effect, or effect the other way; inactive = no such curve, though single readings can be large or run the other way.
Give your call using only these classes: active, inactive

Examples from the recorded data:
In [3]: df
Out[3]:
                                   compound     label
0  OCCN1CCN(CC/C=C2/c3ccccc3Sc3ccc(C(F)(F)F)cc32)CC1  inactive
1  CC(C)COCC(CN(Cc1ccccc1)c1ccccc1)N1CCCC1 (centres undefined)  inactive
2  C[C@]12CCC(=O)C=C1CC[C@@H]1[C@@H]2C(=O)C[C@@]2(C)[C@H]1CC[C@]2(O)C(=O)CO  inactive
3                             NC/C=C/C(=O)O  inactive
4  Cc1cccc(C)c1NC(=O)C(C)N (centres undefined)  inactive

Enquiry: Recorded call for `C[N+](C)(C)CCCCCCCCCC[N+](C)(C)C` ?
Return: inactive

Enquiry: Could you please tell me the result logged for COC(=O)C1=C(C)NC(C)=C(C(=O)OCCN(C)Cc2ccccc2)C1c1cccc([N+](=O)[O-])c1 (centres undefined) in this assay?
Return: active

Enquiry: Dear colleague, could you share the recorded outcome for `CCN1CCC[C@H]1CNC(=O)c1c(O)c(Cl)cc(Cl)c1OC` when you have a moment?
Return: inactive

Enquiry: What classification did CCCCCN(CCCCC)C(=O)C(CCC(=O)O)NC(=O)c1ccc(Cl)c(Cl)c1 (centres undefined) end up with in this test?
Return: inactive

Enquiry: Kindly provide the recorded test outcome for the following compound: `CCN(CC)CCOCCOC(=O)C1(c2ccccc2)CCCC1`
Return: inactive

Enquiry: Call for entry `O=C(O)CCCCCCCC(=O)O` :
Return: inactive

Enquiry: Call for entry `O=c1[nH]c(=O)n([C@H]2C[C@H](O)[C@@H](CO)O2)cc1Br` :
Return: inactive

Enquiry: Each compound tested received a call. Report the one for `C[C@H](CS)C(=O)N1CCC[C@H]1C(=O)O` .
Return: inactive

Enquiry: Record request — test call for C=CCc1ccccc1OCC(O)CNC(C)C (centres undefined)
Return: inactive

Enquiry: Short answer needed: outcome of this test for c1ccc2c(c1)CCCC2C1=NCCN1 (centres undefined) ?
Return: inactive

Enquiry: Which outcome was assigned to `CN1CCN(C2=Nc3ccccc3Oc3ccc(Cl)cc32)CC1` in this test?
Return: inactive

Enquiry: Status in this test for `COC(=O)[C@@H](N)Cc1ccc(O)c(O)c1` ?
Return: inactive

Enquiry: Hi, do you know how `Cc1nc2ccccn2c(=O)c1CCN1CCC(C(=O)c2ccc(F)cc2)CC1` came out in this test?
Return: inactive

Enquiry: Call for entry `COc1ccc2c(c1OC)C(=O)O[C@@H]2[C@H]1c2c(cc3c(c2OC)OCO3)CCN1C` :
Return: inactive

Enquiry: What is the recorded call for this compound in the test? CCN(Cc1ccncc1)C(=O)C(CO)c1ccccc1 (centres undefined)
Return: inactive

Enquiry: Could you kindly confirm the outcome this assay logged for `CCOC(=O)c1cnc2c(cnn2CC)c1NN=C(C)C` ?
Return: inactive

---

- Tested on: CRL-7250
- protocol.text: Cytotoxic Profiling of Annotated Libraries Using Quantitative High-Throughput Screening (AID 1296008); also: % is scaled to controls: 0 for no effect and ±100 for the full control effect; nearly all actives have a fitted effect of over 60% in size
- assay.conditions: Five cell lines viability, CellTiter-Glo ATP luminescence, 48-72 h; hits give low values
Inconclusive results are not listed.
Hi there, I'd appreciate the recorded max response for every entry that follows.
One number for each entry, in %.

                                   compound  subject_of_test    observable  output_unit  observed
0  O=c1[nH]c(=O)n([C@H]2C[C@H](O)[C@@H](CO)O2)cc1Br         CRL-7250  max response            %    0.0744

Need max response for each of these compounds.
1. CC(=O)OC(C)C[N+](C)(C)C (configuration not stated)
2. O=C(O)CN(CCN(CC(=O)O)CC(=O)O)CCN(CC(=O)O)CC(=O)O
3. Cc1ccc(=O)n(-c2ccccc2)c1

Return:
1: 1.65; 2: -4.18; 3: -4.72

---

- Test system: Dd2
- protocol.text: qHTS profiling for inhibitors of Plasmodium falciparum proliferation (AID 504749); also: nearly all actives have a fitted effect of over 60% in size
- assay.conditions: P. falciparum in erythrocytes, SYBR Green DNA, 72 h; series mostly up to 28.7 µM
Records with an inconclusive call do not appear. Activity calls are given as the source filed them. The call rests on the fitted dose curve; in most records, active means well fitted inhibition curve with a large enough effect; inconclusive means small, poorly fitted or top-dose-only effect; inactive means flat fitted curve, though single readings scatter.
Tick one outcome: 1 for active, -1 for inactive

Example results:
>>> print(df.to_string())
                           molecule  label
0   COC(=O)[C@@H](N)Cc1ccc(O)c(O)c1     -1
1  C[C@H](CS)C(=O)N1CCC[C@H]1C(=O)O     -1
2         CN(C)C(=O)Oc1ccc[n+](C)c1     -1

Enquiry: Per the records of this test, what outcome belongs to `NC/C=C/C(=O)O` ?
Return: -1

Enquiry: Any idea what this test logged for NS(=O)(=O)c1cc2c(cc1Cl)NC(C1CC3C=CC1C3)NS2(=O)=O (stereo not given) ?
Return: -1

Enquiry: What call does the record list for `O=C(O)CP(=O)(O)O` ?
Return: -1

Enquiry: Record request — test call for `c1cc(CN2CCCCC2)cc(OCCCNc2nc3ccccc3s2)c1`
Return: 1

---

- subject.of.test: Cytochrome P450 2D6 (Homo sapiens) (UniProt P10635)
- Sequence (P10635 whole entry, looked up): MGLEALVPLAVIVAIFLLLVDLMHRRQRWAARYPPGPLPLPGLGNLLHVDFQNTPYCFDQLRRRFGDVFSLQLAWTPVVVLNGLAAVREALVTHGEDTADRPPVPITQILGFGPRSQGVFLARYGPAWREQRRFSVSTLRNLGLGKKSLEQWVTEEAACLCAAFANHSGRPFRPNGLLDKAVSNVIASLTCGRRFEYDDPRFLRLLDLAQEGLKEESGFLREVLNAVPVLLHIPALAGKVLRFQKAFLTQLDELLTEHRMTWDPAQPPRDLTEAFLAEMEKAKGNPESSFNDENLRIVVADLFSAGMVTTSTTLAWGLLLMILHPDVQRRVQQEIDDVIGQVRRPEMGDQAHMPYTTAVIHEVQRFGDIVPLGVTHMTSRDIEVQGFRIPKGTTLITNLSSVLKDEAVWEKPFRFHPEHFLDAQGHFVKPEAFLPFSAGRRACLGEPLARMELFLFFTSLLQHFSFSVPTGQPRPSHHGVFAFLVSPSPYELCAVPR
- protocol.text: qHTS Assay for Inhibitors and Substrates of Cytochrome P450 2D6 (AID 891); also: nearly all actives have a fitted effect of over 60% in size
- assay.conditions: recombinant CYP2D6, luciferin-ME EGE luminescence; series mostly up to 57.1 µM
Inconclusive results are not listed. Activity calls are given as the source filed them. Calls follow the shape of the dose curve; as a rule, active = well fitted inhibition curve with a large enough effect; inconclusive = small, poorly fitted or top-dose-only effect; inactive = no such curve, though single readings can be large or run the other way.
Respond only with the outcome that fits, drawn from active, inactive

Answered cases to consult:
                        structure_as_smiles                           subject_of_test     label
0               NC(N)=NC(=O)Cc1c(Cl)cccc1Cl  Cytochrome P450 2D6 (Homo sapiens) (UniProt P10635)    active
1          C[C@H](CS)C(=O)N1CCC[C@H]1C(=O)O  Cytochrome P450 2D6 (Homo sapiens) (UniProt P10635)  inactive
2   CCC(=O)c1ccc2c(c1)N(CCCN(C)C)c1ccccc1S2  Cytochrome P450 2D6 (Homo sapiens) (UniProt P10635)    active
3  CCCCCCCC/C=C\CCCCCCCC(=O)NCc1ccc(O)c(OC)c1  Cytochrome P450 2D6 (Homo sapiens) (UniProt P10635)    active

Next up:
Enquiry: Field: outcome | Entry: `NC(=O)N1c2ccccc2C=Cc2ccccc21`
Return: inactive

---

- System: DIV14
- protocol.text: qHTS profiling for inhibitors of Plasmodium falciparum proliferation (AID 504749); also: nearly all actives have a fitted effect of over 60% in size
- assay.conditions: P. falciparum in erythrocytes, SYBR Green DNA, 72 h; series mostly up to 28.7 µM
Inconclusive results are not listed. The source made the active and inactive calls. The call rests on the fitted dose curve; in most records, active means well fitted inhibition curve with a large enough effect; inconclusive means small, poorly fitted or top-dose-only effect; inactive means flat fitted curve, though single readings scatter.
Answer with one of the outcomes YES (active), NO (inactive)

Reference set (3 entries):
In [3]: df
Out[3]:
                                   compound  subject_of_test  label
0           CCCCNC(=O)NS(=O)(=O)c1ccc(C)cc1            DIV14     NO
1  CNC1(C)C2CCC(C2)C1(C)C (stereo unspecified)            DIV14     NO
2              NC(=O)N1c2ccccc2C=Cc2ccccc21            DIV14     NO

Enquiry: What did this assay record as the result for COCCOC(=O)C1=C(C)NC(C)=C(C(=O)OC(C)C)C1c1cccc([N+](=O)[O-])c1 (stereo unspecified) ?
Return: YES

Enquiry: Hey, what did the test say about `CN1C[C@H](C(=O)N[C@]2(C)O[C@@]3(O)[C@@H]4CCCN4C(=O)[C@H](Cc4ccccc4)N3C2=O)C[C@@H]2c3cccc4[nH]cc(c34)C[C@H]21` ?
Return: YES

Enquiry: How was `CCN(CC)CCCN(c1ccccc1)C1Cc2ccccc2C1` classified in this test?
Return: YES

Enquiry: Call for entry `CCN1CCc2nc(N)oc2CC1` :
Return: NO

Enquiry: Could you kindly confirm the outcome this assay logged for CNCCC(Oc1ccccc1OC)c1ccccc1 (stereo unspecified) ?
Return: YES
